Data provenance: PubChem BioAssay

# target-of-assay: GTPase HRas (Homo sapiens)
# test: Ras wt fluorescent GTP loading blockade – biochemical, wildtype, multiplex bead flow cytometry, dose response (AID 1335)
# experimental-conditions: bead-based flow cytometry, Bodipy-GTP binding to GST-Ras; at 100 µM (top of the series) unless noted
Answer each item with its documented GTP binding, percent of control.
Give bare numbers, in %.

Check out these entries, answers already filled in.
| molecule | GTP binding, percent of control (%) |
| --- | --- |
| COc1ccccc1OCCn1cc(C(=O)O)c2cccc(Cl)c21 | 199 |
| O=C(O)C1C2C=CC(C2)C1C(=O)N1CCOCC1 (stereo not drawn) | 66.4 |

// for each molecule in input: emit GTP binding, percent of control
1. O=C(O)c1ccccc1OCCOc1ccccc1
2. CC(C)(C)C(=O)OCC1OC(n2cnc(C(N)=O)n2)C(O)C1O (stereo not drawn)
3. Cc1c(C(=O)N/N=C/c2ccc(-c3ccccc3[N+](=O)[O-])o2)sc(N)c1C#N

Solution:
[81.1, 81.6, 49.1]
